FYI, the data here is from PubChem BioAssay (NCI).

Please go through the items and note down their TGI.
Test system: M19-MEL melanoma
Assay: NCI tumour cell line growth inhibition, 48 h

Sample answers from the record:
> print(dat)
                                   compound  recorded.endpoint        val
1  CC(=O)OCC1OC([Se-])C(OC(C)=O)C(OC(C)=O)C1OC(C)=O.N#CCC[PH+](CCC#N)CCC#N.[Au+] (stereo not given)                TGI  > 27.9 µM
2  O=c1c(O)cc2c(O)oc3c(=O)c(O)c(O)c4c(O)oc1c2c43                TGI      25 µM
3  NC(=S)N/N=C(\CCC(=O)Nc1ccccc1[N+](=O)[O-])CC(=O)c1ccco1                TGI   > 100 µM
4      O=C(Nc1ccccc1)c1cccc([N+](=O)[O-])c1                TGI   > 100 µM

Observed TGI on M19-MEL melanoma for CN(C)c1ccc(/C=c2\sc3nnc(-c4cccnc4)n3c2=O)cc1 , please. > 100 µM

* * *

Test system: BT-549 breast
Assay: NCI tumour cell line growth inhibition, 48 h; in the data active = GI50 below about 0.43 µM; inactive = the rest
Pick one: true for active, false for inactive

Structure Notation	Study Target	Category
COc1cc(/C=C/C(=O)c2c(C)nc3ccccc3c2C)ccc1OCCCCOc1cc2c(cc1OC)C(=O)N1CCC[C@H]1C=N2	BT-549 breast	true

Check the results log: what was the call for O=C(NS(=O)(=O)c1ccc(NC[C@H]2COCCO2)c([N+](=O)[O-])c1)c1ccc(N2CCN(CC3=C(c4ccc(Cl)cc4)CC4(CCC4)CC3)CC2)cc1Oc1cnc2[nH]ccc2c1 ? false

Try this molecule next: CN(CSc1ccc(Cl)cc1)c1ccc(CSc2ccc(Cl)cc2)cc1 false

Try this molecule next: Brc1ccc(Nc2nc3ccccc3nc2Nc2ccc(Br)cc2)cc1 false

* * *

Tested on: OVCAR-5 ovarian
Experiment: NCI tumour cell line growth inhibition, 48 h; in the data active means GI50 below about 0.43 µM; inactive means the rest
Pick one: active, inactive

Worked examples, 5 compounds total:
Compound	Category
FC(F)(F)c1ccc(-c2ncc(-c3ccc(C(F)(F)F)cc3)c(NCc3cc(C(F)(F)F)cc(C(F)(F)F)c3)n2)cc1	inactive
COc1ccc(C2CC(c3ccc4ccccc4c3)=NN2c2nc(O)c(C3=c4cc(OC)ccc4=NC3=O)s2)cc1 (centres undefined)	active
O=C1NC(=O)C(c2ccccc2)=C1Nc1ccccc1	inactive
O=C(NS(=O)(=O)c1ccc(NC[C@H]2COCCO2)c([N+](=O)[O-])c1)c1ccc(N2CCN(CC3=C(c4ccc(Cl)cc4)CC4(CCC4)CC3)CC2)cc1Oc1cnc2[nH]ccc2c1	inactive
CCCCCCc1cc2cc(-c3csc(/C=C/c4ccccc4)n3)c(=O)oc2cc1O	inactive

Check the results log: what was the call for CCCOc1ccc(/C=N/Nc2cc(C)nc3ccc(Cl)cc23)cc1 ? inactive

Try this compound next: Cc1cc(C(O)(c2ccc(Nc3ccccc3)cc2)c2ccc(Nc3ccc(S(=O)(=O)O)cc3)cc2)ccc1N (centres undefined) inactive

Try this compound next: O=C(Cc1ccc(Nc2ccnc(C(F)(F)F)c2)cc1)N/N=C/c1ccccc1O inactive

Try this compound next: CCOC(=O)Nc1ccc2c(c1)N(C(=O)CCN(CC)CC)c1ccccc1S2 inactive

Try this compound next: CCC(C)(C)[C@H](NC(=O)[C@H]1CCCCN1C)C(=O)N(C)[C@H](C[C@@H](OC(C)=O)c1nc(C(=O)N[C@@H](Cc2ccccc2)C[C@H](C)C(=O)O)cs1)C(C)C active

Try this compound next: Oc1ccc(Cc2ccc(O)c(C3CC(c4ccc(Cl)cc4)=NN3)c2)cc1C1CC(c2ccc(Cl)cc2)=NN1 (centres undefined) inactive

Try this compound next: O=C(Nc1ccc(I)cc1)c1cccc([N+](=O)[O-])c1O inactive

Try this compound next: CCCCN(CC)CCCCCCCCCCN1CCCc2cc(OC)ccc21 inactive

Try this compound next: CCN1C(=O)N(CC)C2C1NC(=S)N2/N=C/C=C/c1ccccc1OC (centres undefined) active

* * *

Tested on: CCRF-CEM leukemia
Experiment: NCI tumour cell line growth inhibition, 48 h
Please go through the items and note down their TGI.

Give me TGI for each of these compounds, listed below.
1. O=C1c2cccnc2C(=O)c2c1c(C(=O)OCCc1ccccn1)c1ccccn21
2. c1ccc(-c2cc(-c3ccncc3)cc(-c3ccncc3)n2)cc1
3. Brc1ccc(Nc2nc3ccccc3nc2Nc2ccc(Br)cc2)cc1

1. > 25.9 µM
2. > 100 µM
3. 10.7 µM

Give me TGI for each of these compounds, listed below.
1. CCC(C)CC(C)C(=O)c1c(O)ccn(O)c1=O (stereo unspecified)
2. O=[N+]([O-])/C=C/c1cc2ccc3ccccc3c2[nH]1
3. CCCCOC(=O)NC(Nc1ccc(S(=O)(=O)Nc2ncccn2)cc1)(C(F)(F)F)C(F)(F)F
4. COc1cc2c3c(n(CCCN4CCCNCC4)c(=O)c2cc1OC)-c1cc2c(cc1C3=O)OCO2
5. CCc1ccc(Nc2cc(=O)n(C)c(SCc3ccccc3)n2)cc1

["> 100 µM", "2.8 µM", "> 100 µM", "8.06 µM", "> 100 µM"]

Give me TGI for each of these compounds, listed below.
1. O=C1Nc2ccccc2/C1=C\c1c(-c2ccccc2)nc2n1CCS2
2. O=C(Cc1ccccc1)N/N=C(/c1nc2ccc([N+](=O)[O-])cc2[nH]c1=O)C(O)c1ccc(C(O)/C(=N/NC(=O)Cc2ccccc2)c2nc3ccc([N+](=O)[O-])cc3[nH]c2=O)cc1 (stereo unspecified)
3. COC(=O)c1ccc(C)cc1C1CN=NC12Cc1cc(C)ccc1C2=O (stereo unspecified)

> 100 µM
> 100 µM
> 100 µM

* * *

Test system: SF-295 CNS
Assay: NCI tumour cell line growth inhibition, 48 h
Recorded Endpoint: TGI

Sample answers from the record:
> print(dat)
                                   molecule  recorded.endpoint       val
1  CCN(CC)CC(O)COc1c(Br)c(Br)c(Br)c2c1OC(C)(C)C2 (stereo not given)                TGI   2.71 µM
2  CC(CNC(=O)c1ccccc1)(CNC(=O)c1ccccc1)[N+](=O)[O-]                TGI  > 100 µM
3  Cc1cnc2c(c1)C(=O)N(c1ccc([N+](=O)[O-])cc1)S2(=O)=O                TGI  > 100 µM
4  O=C1CCCCC1C(O)(C(F)(F)F)C(F)(F)Cl (stereo not given)                TGI   > 10 µM

Next up:
Bench note: what TGI did CC(=O)N(CCN1C(=O)c2ccccc2C1=O)CCN1C(=O)c2ccccc2C1=O show? > 100 µM

* * *

System: T-47D breast
Test: NCI tumour cell line growth inhibition, 48 h
Recorded Endpoint: TGI

Sample answers from the record:
> print(dat)
                                   compound  study.target       val
1  Cc1cc(C(O)(c2ccc(Nc3ccccc3)cc2)c2ccc(Nc3ccc(S(=O)(=O)O)cc3)cc2)ccc1N (centres undefined)  T-47D breast   3.18 µM
2      COc1ccccc1NC(=O)C(=O)Cc1cnc2ccccc2n1  T-47D breast  > 100 µM
3  N#CCC1C2CC3C(C2=O)C13 (centres undefined)  T-47D breast  > 100 µM
4  CC(Cc1cccc2c1Nc1ccccc1S2)N(C)CCO (centres undefined)  T-47D breast  > 100 µM
5  O=c1nc2c(c(-c3ccc(F)cc3)[nH]1)COC/C2=C\c1ccc(F)cc1  T-47D breast  > 100 µM

Give me TGI for each of these compounds, listed below.
1. CCCCCCCc1cscc1-c1cscc1Br
2. CC(=O)N=c1ccc2nc(N)nn(O)c-2c1
3. [N-]=[N+]=CC(=O)OCC1NC(=O)C(COC(=O)C=[N+]=[N-])NC1=O (centres undefined)
4. CC(=O)O[C@H]1CC[C@@]2(C)C(=CC[C@@H]3[C@@H]2CC[C@](C)(c2nnc(C)o2)[C@H]3CC#N)C1
5. Cn1c(=O)c2[nH]c(CCCc3ccc([N+](=O)[O-])cc3)nc2n(C)c1=O

["88.3 µM", "> 100 µM", "> 100 µM", "> 100 µM", "> 100 µM"]

* * *

System: LOX IMVI melanoma
Test: NCI tumour cell line growth inhibition, 48 h
Recorded Endpoint: TGI (µM)
One number for each entry, in µM.

Sample answers from the record:
> print(dat)
                         structure.notation  recorded.endpoint  unit.name     val
1  C#C[C@]1(O)[C@@H](CO)O[C@@H](n2ccc(N)nc2=O)[C@@H]1O                TGI         µM  0.0945
2  Brc1ccc(Nc2nc3ccccc3nc2Nc2ccc(Br)cc2)cc1                TGI         µM    3.31

Bench note: what TGI did FC(F)(F)c1cc(-c2ncn(/C=C\c3nnco3)n2)cc(C(F)(F)F)c1 show? 3.82
